Assay: Long-term storage stability of antibiotics in combination with fosfomycin spiked in plasma/CAMHB (−30 °C, −80 °C)
Assay type: physicochemical
Settings: CAMHB, combination with fosfomycin, 4 weeks at -80 °C; MQC (nominal as E14)
Metric name: Mean accuracy (%), Table S18
Express it in %; write the number only.

Check out these entries, answers already filled in.
> print(dat)
                                   molecule                   metric.name  observed.measurement
1  CC(C)(O/N=C(\C(=O)N[C@@H]1C(=O)N2C(C(=O)[O-])=C(C[n+]3ccccc3)CS[C@H]12)c1csc(N)n1)C(=O)O  Mean accuracy (%), Table S18                 106.4
2  Cn1c(N)c(NC(=O)NCCN)c[n+]1CC1=C(C(=O)O)N2C(=O)[C@@H](NC(=O)/C(=N\OC(C)(C)C(=O)[O-])c3nsc(N)n3)[C@H]2SC1  Mean accuracy (%), Table S18                  96.2
3  NC(=O)[C@@H]1CC[C@@H]2CN1C(=O)N2OS(=O)(=O)O  Mean accuracy (%), Table S18                  98.2
4  CN(C)c1cc(NC(=O)CNC(C)(C)C)c(O)c2c1C[C@H]1C[C@H]3[C@H](N(C)C)C(O)=C(C(N)=O)C(=O)[C@@]3(O)C(O)=C1C2=O  Mean accuracy (%), Table S18                  95.3
5  C[C@@H](O)[C@H]1C(=O)N2C(C(=O)O)=C(S[C@@H]3CN[C@H](C(=O)N(C)C)C3)[C@H](C)[C@H]12  Mean accuracy (%), Table S18                  95.4

Which Mean accuracy (%), Table S18 value belongs to "C[C@@H](O)[C@H]1C(=O)N2C(C(=O)O)=C(S[C@@H]3CN[C@H](CNS(N)(=O)=O)C3)[C@H](C)[C@H]12" ?
104.7
